Conditions: in acetonitrile, 338.56 K
quantity measured: solubility (mole fraction)
// return a plain number; no unit text

Qu. Give a short answer stating reported solubility (mole fraction) for O=P1(Oc2ccccc2)OCC2(CO1)COP(=O)(Oc1ccccc1)OC2 (stereo unspecified) .
Ans. 0.00738

---

Settings: in toluene, 338.56 K
quantity measured: solubility (mole fraction)
Please state the value as a number alone, without comment.

Qu. Report solubility (mole fraction) for O=P1(Oc2ccccc2)OCC2(CO1)COP(=O)(Oc1ccccc1)OC2 (stereo unspecified)
Ans. 0.00646

---

Details: in cyclohexane, 298.15 K
quantity measured: solubility (mole fraction)
Just the number.

Qu. Read the entry COc1ccc(P(=O)(c2ccc(OC)cc2)c2ccc(OC)cc2)cc1 and write its reported solubility (mole fraction).
Ans. 0.00053
